- target system: Escherichia coli DNA gyrase A/B tetramer (Escherichia coli (strain K12), UniProt P0AES4+P0AES6)
- assay protocol: DNA gyrase supercoiling activity fluorescence polarisation assay
- Format: biochemical
- condition: 5 nM enzyme, relaxed plasmid, 0.3 mM ATP, ambient temperature; read-out: E. coli DNA gyrase supercoiling IC50
value type: IC50 (nM)
A number alone suffices; assume nM.

molecule	value type	measured number
C[C@@H]1CN2c3c(cc4c(-c5cncnc5)noc4c3Cl)CC3(C(=O)NC(=O)NC3=O)[C@H]2[C@H](C)O1 (racemic) [Example 44]	IC50	1000
C[C@@H]1CN2c3c(nc4c(-c5cccnc5)noc4c3Cl)CC3(C(=O)NC(=O)NC3=O)[C@H]2[C@H](C)O1 (relative stereo) [Example 109]	IC50	500

# input for lookup
Recorded IC50 (molecule C[C@@H]1CN2c3c(cc4c(-c5nccn5C)noc4c3F)CC3(C(=O)NC(=O)NC3=O)[C@@H]2[C@H](C)O1 (relative stereo) [Example 68] ): 700
